meta.source: paper PMC9482650

- test_target: MAGI2_4, Q86UL8
- Sequence (Q86UL8 772-865): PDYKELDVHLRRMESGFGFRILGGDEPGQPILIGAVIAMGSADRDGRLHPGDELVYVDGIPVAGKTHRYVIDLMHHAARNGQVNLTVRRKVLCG
- assay_explanation: holdup assay
- Design: key: below the threshold = too weak to quantify, mostly under pKd 3.1 to 4
- assay_context: plain residues with an end cap or a label only (N-terminal biotin on a linker: ttds)
quantity_kind: pKd
Lab note: jot down the number only; don't add units.

binder	pKd
RTRQRNETQV [HPV51-E6, P26554]	4.4

Read the next record carefully.
Query string: Given the entry LCALPKVTTV [AGMAT, Q9BSE5] , report its measured pKd.
Result string: 4.55
